- Test system: AS120
- methodNotes: qHTS profiling for inhibitors of Plasmodium falciparum proliferation (AID 504749); note: nearly all actives have a fitted effect of over 60% in size
- testContext: P. falciparum in erythrocytes, SYBR Green DNA, 72 h; series mostly up to 28.7 µM
Records with an inconclusive call do not appear. Activity calls are given as the source filed them. Calls come from the whole dose curve; as a rule, active = well fitted inhibition curve with a large enough effect; inconclusive = small, poorly fitted or top-dose-only effect; inactive = flat fitted curve, though single readings scatter.
Give your call using only these classes: T = active, F = inactive

These solved cases illustrate the format of a correct answer.
1) c1cc2c(c(N3CCNCC3)c1)OCCO2    F
2) Cc1ncc2n1-c1ccc(Cl)cc1C(c1ccccc1F)=NC2    F
3) CC(C)(O)C(Cl)(Cl)Cl    T
4) Cc1ccc(N=CN(C)C=Nc2ccc(C)cc2C)c(C)c1    F
5) C[C@]12Cc3nonc3C[C@@H]1CC[C@@H]1[C@@H]2CC[C@@]2(C)[C@H]1CC[C@]2(C)O    F

Continue with the compound presented below.
Please share the test call associated with CCN(Cc1ccc(Cl)nc1)/C(=C/[N+](=O)[O-])NC .
F

Attribution: PubChem BioAssay (NCATS)
